Test system: C. pelliculosa
Assay Protocol: agar dilution test, C. pelliculosa
Type: cell-based
Condition Description: Hansenula anomala; C. pelliculosa; agar dilution; complete growth inhibition; read-out: Minimum Inhibitory Concentration, Cp
Reported Endpoint: MIC (µg/mL)
Give your result in µg/mL as a bare value.

>>> observed_result("COc1ccc(NC(=O)N2CN3CN(C/C=C\\Cl)CN(C3)C2)cc1")
250
>>> observed_result("O=C(Nc1ccc(Br)cc1)N1CN2CN(C/C=C\\Cl)CN(C2)C1")
250

# evaluate next
Observed MIC on C. pelliculosa for `CCCCNC(=O)N1CN2CN(C/C=C\Cl)CN(C2)C1` , please.
250
